- assayedSystem: human IGF-1 receptor (HIGF-1R) (human, UniProt P08069 31-1367)
- assayComment: 125I-IGF-1 competition, solubilised HIGF-1R
measureName: Kd (µM)
Please reply with the bare figure in µM and do not write the unit itself.

[
  {
    "binder": "537 (recombinant dimer with tags at both ends; also called RP9-6aa-D8) peptide: MADYKDDDDKGSLDESFYDWFERQLGKKGGSGGSWLDQEWAWVQCEVYGRGCPSAAAGAPVPYPDPLEPRPG",
    "reportedResult": 0.98
  }
]

Task item: # get_value(readout='Kd', item= 538 (recombinant dimer with tags at both ends; also called RP9-12aa-D8) peptide: MADYKDDDDKGSLDESFYDWFERQLGKKGGSGGSGGSGGSWLDQEWAWVQCEVYGRGCPSAAAGAPVPYPDPLEPRPG )
Reply: 0.71
